System: U-251
MEASUREMENT_DESCRIPTION: Anticancer activity against NK1R overexpressing human U251MG cells assessed as cell viability after 72 hrs by MTT assay
Type: functional, cell-based
Calls of active or inactive are those of the source. No cut-off for these calls is given here. Non-standard residues stand in square brackets, D forms with d. Residues, ends and D or L forms follow the SMILES beside them. *: point of attachment. S(CH2)2OCO2(CPT-20-yl) = CC[C@@]1(OC(=O)OCCS*)C(=O)OCc2c1cc1n(c2=O)Cc2cc3ccccc3nc2-1; Ahx = NCCCCCC(=O)O
Your answer must be one of the following: Yes (active), No (inactive)

CC[C@@]1(OC(=O)OCCSSC[C@H](N)C(=O)N[C@@H](CCCNC(=N)N)C(=O)N2CCC[C@H]2C(=O)N[C@@H](CCCCN)C(=O)N2CCC[C@H]2C(=O)N[C@@H](CCC(N)=O)C(=O)N[C@@H](CCC(N)=O)C(=O)N[C@@H](Cc2ccccc2)C(=O)N[C@@H](Cc2ccccc2)C(=O)NCC(=O)N[C@@H](CC(C)C)C(=O)N[C@@H](CCSC)C(N)=O)C(=O)OCc2c1cc1n(c2=O)Cc2cc3ccccc3nc2-1    Yes

Per the assay record, what outcome was assigned to CC[C@@]1(O)C(=O)OCc2c1cc1n(c2=O)Cc2cc3ccccc3nc2-1 ?
Yes

Per the assay record, what outcome was assigned to CSCC[C@H](NC(=O)[C@H](CC(C)C)NC(=O)CNC(=O)[C@H](Cc1ccccc1)NC(=O)[C@H](Cc1ccccc1)NC(=O)[C@H](CCC(N)=O)NC(=O)CCCCCNC(=O)[C@@H](N)CS)C(N)=O (H-C[Ahx]QFFGLM-NH2) ?
No

Per the assay record, what outcome was assigned to CC[C@@]1(OC(=O)OCCSSC[C@H](N)C(=O)NCCCCCC(=O)N[C@@H](CCC(N)=O)C(=O)N[C@@H](Cc2ccccc2)C(=O)N[C@@H](Cc2ccccc2)C(=O)NCC(=O)N[C@@H](CC(C)C)C(=O)N[C@@H](CCSC)C(N)=O)C(=O)OCc2c1cc1n(c2=O)Cc2cc3ccccc3nc2-1 (H-C(S(CH2)2OCO2(CPT-20-yl))[Ahx]QFFGLM-NH2) ?
Yes
